runDescription: CHI Log D procedure
Format: physicochemical
studyConditions: pH 7.4, CHI Log D
propertyName: chromatographic logD
No unit in the answer, please; the number alone is enough.

Challenge: # get_value(readout='chromatographic logD', item= CC(=O)N1CCC[C@]12CC=CCCCC1(CCCC=CCCCCCC[C@@](C)(C(=O)N[C@@H](Cc3ccccc3)C(=O)N[C@@H](Cc3c[nH]c4ccccc34)C(=O)N[C@@H](CCC(N)=O)C(N)=O)NC(=O)[C@H](C(C)C)NC(=O)[C@H](Cc3ccccc3)NC(=O)[C@H](C)NC(=O)[C@H](C)NC(=O)[C@H](Cc3csc4ccccc34)NC(=O)[C@H](CC(=O)O)NC1=O)NC(=O)[C@H](C)NC(=O)[C@H](CC(=O)O)NC2=O (some centres unmarked) )
Response given: 3.02

Challenge: Check CC(=O)N1CCC[C@]12CC=CCCCC1(CCCC=CCCCCCC[C@@](C)(C(=O)N[C@@H](Cc3c[nH]cn3)C(=O)N[C@@H](Cc3c[nH]c4ccccc34)C(=O)N[C@@H](CCC(N)=O)C(N)=O)NC(=O)[C@H](C(C)C)NC(=O)[C@H](Cc3ccccc3)NC(=O)[C@H](C)NC(=O)[C@H](C)NC(=O)[C@H](CC(=O)O)NC(=O)[C@H](CC(=O)O)NC1=O)NC(=O)[C@H](C)NC(=O)[C@H](CC(=O)O)NC2=O (some centres unmarked) too.
Response given: 1.49
